Test system: Pseudomonas aeruginosa ATCC 27853
Experiment: ≥ marks a high value that may be exact or a test limit, other limits are often not marked, values filed in µg/mL are converted to µM
Lab note: compare MIC with 6 µM, writing t if less and f if equal or more.

molecule	assigned_label
NCC(=O)N[C@@H](CCCN=C(N)N)C(=O)N[C@@H](CCCN=C(N)N)C(=O)N1CCC[C@H]1C(=O)N[C@@H](CCCN=C(N)N)C(=O)N1CCC[C@H]1C(=O)N[C@@H](CCCN=C(N)N)C(=O)N1CCC[C@H]1C(=O)N[C@@H](CCCN=C(N)N)C(=O)N1CCC[C@H]1C(=O)N[C@@H](Cc1ccccc1)C(=O)N[C@@H](Cc1ccccc1)C(=O)N[C@@H](Cc1ccccc1)C(=O)N[C@@H](Cc1ccccc1)C(=O)O [GRRPRPRPRPFFFF]	f
CC[C@H](C)[C@H](NC(=O)CNC(=O)[C@H](C)NC(=O)[C@H](CC(C)C)NC(=O)[C@H](C)NC(=O)[C@H](C)NC(=O)[C@@H]1CCCN1C(=O)[C@H](CC(C)C)NC(=O)[C@@H](N)Cc1ccccc1)C(=O)NCC(=O)NCC(=O)N[C@H](C(=O)N[C@@H](CC(C)C)C(=O)NCC(=O)N[C@@H](CCCCN)C(=O)N[C@@H](CC(C)C)C(=O)N[C@@H](Cc1ccccc1)C(N)=O)[C@@H](C)CC [FLPAALAGIGGILGKLF]	f
CC(C)C[C@H](NC(=O)[C@H](Cc1ccccc1)NC(=O)[C@H](CCCCN)NC(=O)CN)C(=O)N[C@@H](CCCCN)C(=O)N[C@@H](CCCCN)C(=O)N[C@@H](C)C(=O)N[C@@H](CCCCN)C(=O)N[C@@H](CCCCN)C(=O)N[C@@H](Cc1ccccc1)C(=O)NCC(=O)N[C@@H](CCCCN)C(N)=O [GKFLKKAKKFGK]	f
CC[C@H](C)[C@H](NC(=O)[C@H](CCCN=C(N)N)NC(=O)[C@H](C)NC(=O)[C@@H](NC(=O)[C@@H](NC(=O)[C@H](CCCN=C(N)N)NC(=O)[C@@H](N)CCCCN)[C@@H](C)CC)C(C)C)C(=O)N[C@@H](CCCCN)C(=O)N[C@@H](C)C(=O)N[C@@H](Cc1ccccc1)C(=O)N[C@@H](CC(C)C)C(=O)N[C@@H](CCCN=C(N)N)C(=O)O [KRIVARIKAFLR]	t
CC[C@H](C)[C@H](NC(=O)[C@H](CCCCN)NC(=O)[C@H](CCC(N)=O)NC(=O)[C@@H](NC(=O)[C@@H](NC(=O)[C@H](CCCN=C(N)N)NC(=O)[C@@H](N)CCCCN)[C@@H](C)CC)C(C)C)C(=O)N[C@@H](CCCCN)C(=O)N[C@@H](CC(=O)O)C(=O)N[C@@H](Cc1ccccc1)C(=O)N[C@@H](CC(C)C)C(=O)N[C@@H](CCCN=C(N)N)C(=O)O [KRIVQKIKDFLR]	f

In: MIC strictly < 6 µM for this molecule? CC[C@H](C)[C@@H]1NC(=O)[C@H](CCCCN)NC(=O)[C@@H](NC(=O)[C@H](CC(C)C)NC(=O)[C@@H](NC(=O)[C@H](CCC(N)=O)NC(=O)[C@@H]2CCCN2C(=O)[C@H](CC(C)C)NC(=O)[C@H](Cc2ccccc2)NC(=O)[C@H](CC(N)=O)NC(=O)[C@H](C)NC(=O)[C@H](C)NC(=O)[C@H](CC(C)C)NC(=O)CN)[C@@H](C)CC)CSSC[C@@H](C(N)=O)NC(=O)[C@H](CCCCN)NC(=O)[C@H](CCCN=C(N)N)NC(=O)[C@H](C)NC1=O [GLAANFLPQILCKIARKC]
Out: f

In: Input CC[C@H](C)[C@H](NC(=O)[C@H](CCSC)NC(=O)[C@H](C)NC(=O)[C@@H]1CCCN1C(=O)[C@@H](NC(=O)[C@@H](NC(=O)[C@H](CCCCN)NC(=O)[C@@H](NC(=O)[C@H](CC(C)C)NC(=O)CNC(=O)CNC(=O)[C@@H](N)CC(C)C)[C@@H](C)CC)[C@@H](C)CC)C(C)C)C(=O)N[C@H]1CSSC[C@@H](C(=O)O)NC(=O)[C@H](CCCCN)NC(=O)[C@H](CCCCN)NC(=O)[C@H]([C@@H](C)O)NC(=O)[C@H](C(C)C)NC(=O)[C@H](C)NC1=O [LGGLIKIVPAMICAVTKKC] ; condition: MIC strictly below 6 µM. Does it hold?
Out: f

In: # strict comparison: is reported MIC < 6 µM? input = CC[C@H](C)[C@@H]1NC(=O)[C@H](C)NC(=O)[C@@H](NC(=O)[C@H](Cc2ccccc2)NC(=O)[C@@H](NC(=O)[C@H](CCCCN)NC(=O)[C@H](Cc2c[nH]c3ccccc23)NC(=O)[C@@H]2CCCN2C(=O)[C@H](CC(C)C)NC(=O)[C@H](Cc2ccccc2)NC(=O)[C@@H](N)CCCCN)[C@@H](C)CC)CSSC[C@@H](C(=O)O)NC(=O)[C@H](CCCCN)NC(=O)[C@H](CCCCN)NC(=O)[C@H]([C@@H](C)O)NC1=O [KFLPWKIFCAITKKC]
Out: f

In: Here's an entry: CC(C)[C@H](NC(=O)[C@H](C)NC(=O)[C@@H]1CCCN1C(=O)[C@H](Cc1ccc(O)cc1)NC(=O)[C@@H](N)CCCN=C(N)N)C(=O)NCC(=O)N[C@@H](Cc1ccc(O)cc1)C(=O)N[C@H](C(=O)O)[C@@H](C)O [RYPAVGYT] . Is its MIC below 6 µM?
Out: f

In: Quick check: does CC[C@H](C)[C@@H]1NC(=O)CNC(=O)[C@H](CCCN=C(N)N)NC(=O)[C@H](Cc2ccc(O)cc2)NC(=O)[C@@H]2CSSC[C@H](NC1=O)C(=O)N[C@@H](Cc1ccc(O)cc1)C(=O)N[C@@H](CCCN=C(N)N)C(=O)N[C@@H](CCCN=C(N)N)C(=O)N[C@H](C(=O)N[C@@H](CCCN=C(N)N)C(=O)O)CSSC[C@H](NC(=O)[C@H](C)NC(=O)[C@@H](N)CCCCN)C(=O)N[C@@H](Cc1ccccc1)C(=O)N[C@@H](CCCN=C(N)N)C(=O)N[C@@H](C(C)C)C(=O)N2 [KACFRVCYRGICYRRCR] have MIC under 6 µM?
Out: t

The measurements presented in this section are drawn from DBAASP.
